Reference for the values: ChEMBL document CHEMBL1201862

tested on: XF498; test: NCI tumour cell line growth inhibition, 48 h
Active and inactive are the calls of the source. No stated cut-off is given here; in the data, active = GI50 up to about 1.1 µM and inactive = higher.
# valid calls are active, inactive; nothing else

Reference set (5 entries):
compound: C(=N\CC/N=C/c1cccc2ccccc12)/c1cccc2ccccc12
discrete.label: inactive
//
compound: CC(=O)c1cccc(NC(=O)C(=O)C(C2OC(=O)c3ccccc32)[N+](=O)[O-])c1 (centres undefined)
discrete.label: inactive
//
compound: O=[N+]([O-])c1cccc(C2=NN(c3ccccc3)C3c4cc(Br)ccc4OCC23)c1 (centres undefined)
discrete.label: inactive
//
compound: COC(=O)[C@@]12CC(C(C)C)[C@H]3CC(C(=O)C=C1OC)[C@H]32 (some centres undefined)
discrete.label: inactive
//
compound: CCOC(=O)N1c2c(ccn2C)-c2ccn(C)c2N1C(=O)OCC
discrete.label: inactive

Q: Which outcome was entered for the compound CN(C)CCCn1c2c3ccccc3ccc2c2oc(=O)c3ccccc3c21 in this test?
Ans: inactive

Q: Can you check C[C@H](OCc1ccccc1)C(=O)N1CCS(=O)(=O)N2CCC[C@@H]2C1=O next?
Ans: active

Q: Now consider S=C(Nc1ccccc1)N(/N=C/C=C/c1ccccc1)c1nnc(-c2ccccc2)c(-c2ccccc2)n1 and answer again.
Ans: inactive

Q: One more compound: COc1ccc(NC(=O)/C(Cc2cc(=O)oc3cc(O)ccc23)=N\NC(C)(C)C)c(OC)c1
Ans: inactive

* * *

test system: LOX IMVI; assay: NCI tumour cell line growth inhibition, 48 h
The source made the active and inactive calls. No stated cut-off is given here; in the data, active = GI50 up to about 1.1 µM and inactive = higher.
API: response.call in t (active), f (inactive)

Q: Just curious, what result did O=C(O)CCC(NC(=O)c1ccc(Nc2nc3ccc(C(F)(F)F)cc3nc2-c2ccccc2)cc1)C(=O)O (configuration not stated) get here?
Ans: f

* * *

test system: OVCAR-8; experiment: NCI tumour cell line growth inhibition, 48 h
Active and inactive are the calls of the source. Rule as the data show it: active = GI50 up to about 1.1 µM and inactive = higher.
Outcome (select one): active, inactive

These recorded examples may help you get a feel for the data.
substance.smiles: COc1cc2c3cc1Oc1c(O)c(OC)cc4c1[C@H](Cc1ccc(cc1)Oc1cc(ccc1O)C[C@H]3N(C)CC2)N(C)CC4
discrete.label: inactive
//
substance.smiles: COc1ccc(-c2oc3cc(O)cc(O)c3c(=O)c2OC)cc1
discrete.label: inactive

Next compound, please.
Q: Would you mind telling me which call this test gave CO[C@H]1C[C@H](O[C@H]2CC[C@]3(C=O)[C@H]4CC[C@]5(C)[C@@H](C6=CC(=O)OC6)CC[C@]5(O)[C@@H]4CC[C@]3(O)C2)O[C@H](C)[C@H]1O ?
Ans: active

* * *

Here, each record is paired with measured GI50 data.
test system: TK-10; test: NCI tumour cell line growth inhibition, 48 h
Activity calls are given as the source filed them. Rule as the data show it: active = GI50 up to about 1.1 µM and inactive = higher.

Known GI50 results, listed for orientation:
compound: Cc1ccc(/C=C2/NC(=S)SC2=O)cc1
GI50: 18.1 µM (inactive)
//
compound: CC(=O)N(C(=O)CC(=O)NNCc1ccccc1Cl)c1ccc(Cl)cc1
GI50: > 10 µM (inactive)
//
compound: O=C(O)C(=O)/C=C\c1ccc(Cl)cc1
GI50: > 100 µM (inactive)
//
compound: Clc1nc2c(-c3cccs3)ncnc2n1Cc1ccccc1
GI50: 23 µM (inactive)
//
compound: COC(=O)C(Cc1ccccc1)NS(=O)(=O)c1ccc(-c2c3nc(c(-c4ccc(S(=O)(=O)NC(Cc5ccccc5)C(=O)OC)cc4)c4ccc([nH]4)c(-c4ccc(S(=O)(=O)NC(Cc5ccccc5)C(=O)OC)cc4)c4nc(c(-c5ccc(S(=O)(=O)NC(Cc6ccccc6)C(=O)OC)cc5)c5ccc2[nH]5)C=C4)C=C3)cc1 (stereo not drawn)
GI50: > 100 µM (inactive)

Q: Which GI50 reading was recorded for the compound O=C1C2C3C=C4c5ccccc5N(c5ccccc5)C4(C2C(=O)N1c1ccc([N+](=O)[O-])cc1)[C@H]1C(=O)N(c2ccc([N+](=O)[O-])cc2)C(=O)[C@@H]31 (stereo partly drawn) ?
Ans: > 100 µM (inactive)

Q: // next record COC(=O)[C@@H]1C2OC(C)(C)OC2CN1C(=O)OCc1ccccc1 (stereo partly drawn)
Ans: > 100 µM (inactive)

Q: Check N#CN1C2CCC1CC(=O)C2 too.
Ans: > 100 µM (inactive)

Q: Check N#C[BH2-][n+]1ccc(C(=O)NNCc2ccccc2)cc1 too.
Ans: > 100 µM (inactive)

* * *

test system: K562; test: NCI tumour cell line growth inhibition, 48 h
Calls of active or inactive are those of the source. Rule as the data show it: active = GI50 up to about 1.1 µM and inactive = higher.
# GI50 per record follows

Q: Quick one: GI50 for O=[N+]([O-])c1ccc(/C=N/CC2CCCN3CCCCC23)cc1 (stereo not given) ?
Ans: 19.5 µM (inactive)

Q: Here is the next compound: COc1cc(C2SCC(=O)N2c2ccc(-n3c(-c4ccccc4)nc4ccccc4c3=O)cc2)cc(OC)c1OC (stereo not given)
Ans: > 100 µM (inactive)

* * *

tested on: RXF 393; assay: NCI tumour cell line growth inhibition, 48 h
Calls of active or inactive are those of the source. No stated cut-off is given here; in the data, active = GI50 up to about 1.1 µM and inactive = higher.
// reported GI50 per item

compound: O=C(C[n+]1ccccc1)N/N=C(\Cc1nc2ccc([N+](=O)[O-])cc2nc1O)C(=O)Nc1cc(Cl)c(Cl)cc1Cl
measurement.name: GI50
recorded.measurement: > 100 µM (inactive)
--
compound: O=C1NC(O)c2ccccc2O1 (stereo unspecified)
measurement.name: GI50
recorded.measurement: > 100 µM (inactive)
--
compound: N#CSC/C(Cl)=C/Cl.N#CSC/C(Cl)=C\Cl
measurement.name: GI50
recorded.measurement: > 100 µM (inactive)
--
compound: COc1cc(C)c(C2NC(=O)c3ccccc3N2)cc1C (stereo unspecified)
measurement.name: GI50
recorded.measurement: 0.358 µM (active)
--
compound: N#CC(C#N)/N=N/c1ccc(-c2nc3ccccc3s2)cc1
measurement.name: GI50
recorded.measurement: 4.23 µM (inactive)
--
compound: COC(=O)[C@@H]1CS(=O)(=O)C(C(C)C)N1C(C)=O (stereo partly specified)
measurement.name: GI50
recorded.measurement: > 100 µM (inactive)
--
compound: N#C[BH2-][n+]1ccc(C(=O)NNCc2ccccc2)cc1
measurement.name: GI50
recorded.measurement: > 100 µM (inactive)
--
compound: CSc1ncc2c(C#N)c3[nH]c4ccccc4n3c(=O)c2n1
measurement.name: GI50
recorded.measurement: 7.53 µM (inactive)
--
compound: COC(=O)CNC(=O)C(CSC(=O)OCC1c2ccccc2-c2ccccc21)NC(=O)CCC(NC(=O)OCC1c2ccccc2-c2ccccc21)C(=O)OC (stereo unspecified)
measurement.name: GI50
recorded.measurement: 16.8 µM (inactive)
--
compound: COC(=O)/C(=C\c1cn(C(C)=O)c2ccccc12)P(=O)(OC)OC
measurement.name: GI50
recorded.measurement: 16.7 µM (inactive)

Q: Recorded GI50 for COc1cccc2c(=O)c3c(n(C)c12)OC(C(C)C)C3 (stereo unspecified) , please?
Ans: > 100 µM (inactive)

* * *

tested on: NCI-H23; test: NCI tumour cell line growth inhibition, 48 h
Calls of active or inactive are those of the source. Cut-off read from the data, not from the text of the source: active = GI50 up to about 1.1 µM and inactive = higher.
// allowed return values: yes = active, no = inactive

Worked cases, answers included:
compound: CN(Cc1cnc2nc(N)nc(N)c2n1)c1ccc(C(=O)NC(CCC(=O)NC(P(=O)(O)O)P(=O)(O)O)C(=O)O)cc1 (stereo not given)
discrete.label: no

compound: CN(C)CCC(=O)N1C/C(=C\c2ccc(Cl)c(Cl)c2)C(=O)/C(=C/c2ccc(Cl)c(Cl)c2)C1
discrete.label: yes

compound: CC1=C(C#N)C23C(=O)c4ccccc4C(=O)C2=C(O)C=CC3(O)N1 (stereo not given)
discrete.label: no

Q: // param item: Sc1nn2c(COc3ccc(Cl)cc3)nnc2s1 ; yields the recorded call
Ans: no

Q: Consider next the compound Cc1ccc(-c2cc(-c3ccccc3)nc(N)n2)c(O)c1 in the same way.
Ans: no

* * *

Below, each of the molecules is paired with its reported GI50 value.
test system: SK-MEL-2; experiment: NCI tumour cell line growth inhibition, 48 h
Calls of active or inactive are those of the source. Rule as the data show it: active = GI50 up to about 1.1 µM and inactive = higher.

Here's what some known entries look like.
molecule: Cc1ccc(O)cc1.Cc1cccc(O)c1.Cc1ccccc1O
measurement.name: GI50
recorded.measurement: > 100 µM (inactive)
//
molecule: Cn1c2c(c3ccccc31)CCN1C(=O)C34CCCC3CC21S4 (stereo not given)
measurement.name: GI50
recorded.measurement: > 100 µM (inactive)
//
molecule: CN(Cc1cnc2nc(N)nc(N)c2n1)c1ccc(C(=O)NC(CCC(=O)NC(P(=O)(O)O)P(=O)(O)O)C(=O)O)cc1 (stereo not given)
measurement.name: GI50
recorded.measurement: 6.07 µM (inactive)
//
molecule: COc1ccc(/C=C2\CCC(C)C3C2=NN(c2ccccc2)C3c2ccc(OC)c(OC)c2)cc1OC (stereo not given)
measurement.name: GI50
recorded.measurement: 3.04 µM (inactive)
//
molecule: O=C(c1ccccc1)c1ccc2c(c1)N=C(c1ccc(Cl)c(Cl)c1)CC(c1ccc3ccccc3c1)N2 (stereo not given)
measurement.name: GI50
recorded.measurement: > 100 µM (inactive)
//
molecule: CC1=NN(c2cccc(S(=O)(=O)O)c2)C2(C1)SCC(=O)N2c1nc2ccccc2s1 (stereo not given)
measurement.name: GI50
recorded.measurement: > 100 µM (inactive)
//
molecule: O=C(Nc1cccc2c1[nH]c1c(-c3ccccc3)nccc12)c1ccccc1[N+](=O)[O-]
measurement.name: GI50
recorded.measurement: 54.7 µM (inactive)
//
molecule: CCN1C(=O)C/C(=C\C(C)=O)Nc2ccccc21
measurement.name: GI50
recorded.measurement: > 100 µM (inactive)
//
molecule: ClC(Cl)(Cl)C1CCOC1n1nnc2ccccc21 (stereo not given)
measurement.name: GI50
recorded.measurement: > 100 µM (inactive)

Q: Using the record for O=C1NC(=S)N/C1=C\c1ccc(Sc2ccccc2C(=O)O)s1 , report its GI50.
Ans: > 100 µM (inactive)
